# subject-of-test: human A3 receptors (Homo sapiens, UniProt P0DMS8)
# Construct: expressed in transfected cells; host or cells: HEK-293 cells (membranes)
# Sequence (P0DMS8 1-318): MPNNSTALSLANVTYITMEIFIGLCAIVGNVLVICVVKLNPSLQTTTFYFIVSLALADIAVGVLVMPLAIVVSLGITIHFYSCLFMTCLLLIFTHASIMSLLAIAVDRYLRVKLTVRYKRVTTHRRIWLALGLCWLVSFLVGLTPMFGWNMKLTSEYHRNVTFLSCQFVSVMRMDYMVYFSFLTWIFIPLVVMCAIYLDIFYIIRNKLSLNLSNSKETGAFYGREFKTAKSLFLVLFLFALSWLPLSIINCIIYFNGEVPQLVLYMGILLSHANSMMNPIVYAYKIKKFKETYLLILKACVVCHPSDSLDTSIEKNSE
# test-protocol: radioligand binding, displacement of specific [125I]AB-MECA binding at human A3 receptors expressed in HEK-293 cells
# details: Table 7; [125I]AB-MECA, HEK-293 membranes; read-out: Ki (hA3)
pKi: −log10 of the molar value.
metric-name: pKi

compound | subject-of-test | numeric-readout
COc1cc(O)c2c(c1)O[C@H](c1ccc(O)cc1)CC2=O [Compound 42, sakuranetin, reference compound] | human A3 receptors (Homo sapiens, UniProt P0DMS8) | 5.47
